- Test system: A. baumannii HUMC5
- Assay Protocol: microbe, parasite or virus in culture
- Format: cell-based, Acinetobacter baumannii
- Setup Conditions: Acinetobacter baumannii; strain HUMC5; read-out: Antibacterial Minimum Inhibitory Concentrations
Listing: MIC of selected molecules
Field: numeric (µg/mL). Do not append units.

1. C[C@@H](O)[C@H]1C(=O)N2C(C(=O)O)=C(S[C@@H]3CN[C@H](C(=O)N(C)C)C3)[C@H](C)[C@H]12 [Meropenem]; 8

The recorded MIC for entry C[C@@H](O)[C@H]1C(=O)N2C(C(=O)O)=C(S[C@@H]3CN[C@H](CNS(N)(=O)=O)C3)[C@H](C)[C@H]12 [Doripenem] equals 8

Field MIC (entry C[C@@H](O)[C@H]1C(=O)N2C(C(=O)O)=C(S[C@@H]3CN[C@H](C(=O)Nc4cccc(C(=O)O)c4)C3)[C@H](C)[C@H]12 [Ertapenem] ) reads 32

Reported MIC for C[C@@H](O)[C@H]1C(=O)N2C(C(=O)O)=C(SCCN=CN)C[C@H]12 [Imipenem] was 4
